Hello, the source for this data is ChEMBL document CHEMBL1153121, in case you need it.

target: Cholesteryl ester transfer protein (Homo sapiens) (UniProt P11597); experiment: inhibition of human CETP assessed as cholesteryl ester transfer by fluorescence transfer assay relative to control; parameters: concentration or dose not given beside the values; conditions: concentration not given here
Sequence (P11597 whole entry, looked up): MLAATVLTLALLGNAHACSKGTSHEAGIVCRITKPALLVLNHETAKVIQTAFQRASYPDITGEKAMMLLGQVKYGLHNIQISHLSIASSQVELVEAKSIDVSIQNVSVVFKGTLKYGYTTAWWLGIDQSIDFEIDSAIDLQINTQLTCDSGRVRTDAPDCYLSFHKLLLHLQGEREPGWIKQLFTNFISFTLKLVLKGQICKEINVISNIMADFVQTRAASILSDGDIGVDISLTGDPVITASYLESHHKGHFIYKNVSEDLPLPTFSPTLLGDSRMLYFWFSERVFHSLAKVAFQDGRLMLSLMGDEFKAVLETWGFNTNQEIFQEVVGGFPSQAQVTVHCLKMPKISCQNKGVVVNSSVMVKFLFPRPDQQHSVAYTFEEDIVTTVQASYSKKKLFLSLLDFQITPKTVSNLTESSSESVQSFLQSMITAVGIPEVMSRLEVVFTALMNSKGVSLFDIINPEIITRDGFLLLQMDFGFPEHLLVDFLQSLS
The threshold is inclusive: inhibition of exactly 40% counts as yes; values below receive no.

Ask: Check the entry Cc1ccccc1OCC(=O)Nc1ccc(-c2nc3cccc(F)c3o2)cc1 : does inhibition equal or exceed 40%?
Reply: no

Ask: Could you please find out whether Cc1ccccc1OCC(=O)Nc1ccc(-c2nc3cc([N+](=O)[O-])ccc3o2)cc1 has inhibition that meets 40% or exceeds it?
Reply: yes

Ask: Hi, just wondering whether Cc1ccccc1OCC(=O)Nc1ccc(-c2nc3ccc([N+](=O)[O-])cc3o2)cc1 shows inhibition of 40% or higher.
Reply: yes

Ask: Has Cc1ccc2nc(-c3ccc(NC(=O)COc4ccccc4C)cc3)oc2c1 a recorded inhibition greater than or equal to 40%?
Reply: no

Ask: Kindly determine if inhibition recorded for Cc1ccc2oc(-c3ccc(NC(=O)COc4ccccc4C)cc3)nc2c1 is above or exactly 40%.
Reply: yes

Ask: Could you tell me if the measured inhibition of Cc1ccccc1OCC(=O)Nc1ccc(-c2nc3ccc(F)cc3o2)cc1 reaches 40% or more?
Reply: yes

Ask: Hello, I need to know if Cc1ccccc1OCC(=O)Nc1ccc(-c2nc3cccc(Cl)c3o2)cc1 has measured inhibition not below 40%. Thanks!
Reply: yes

Ask: Could you please find out whether Cc1ccccc1OCC(=O)Nc1ccc(-c2nc3c([N+](=O)[O-])cccc3o2)cc1 has inhibition that meets 40% or exceeds it?
Reply: yes
